Hello, the source for this data is the Kinase Knowledgebase extract (Sharma et al. 2016), in case you need it.

- study-system: PIK3CG (human) (UniProt P48736)
- Sequence (P48736 whole entry, looked up): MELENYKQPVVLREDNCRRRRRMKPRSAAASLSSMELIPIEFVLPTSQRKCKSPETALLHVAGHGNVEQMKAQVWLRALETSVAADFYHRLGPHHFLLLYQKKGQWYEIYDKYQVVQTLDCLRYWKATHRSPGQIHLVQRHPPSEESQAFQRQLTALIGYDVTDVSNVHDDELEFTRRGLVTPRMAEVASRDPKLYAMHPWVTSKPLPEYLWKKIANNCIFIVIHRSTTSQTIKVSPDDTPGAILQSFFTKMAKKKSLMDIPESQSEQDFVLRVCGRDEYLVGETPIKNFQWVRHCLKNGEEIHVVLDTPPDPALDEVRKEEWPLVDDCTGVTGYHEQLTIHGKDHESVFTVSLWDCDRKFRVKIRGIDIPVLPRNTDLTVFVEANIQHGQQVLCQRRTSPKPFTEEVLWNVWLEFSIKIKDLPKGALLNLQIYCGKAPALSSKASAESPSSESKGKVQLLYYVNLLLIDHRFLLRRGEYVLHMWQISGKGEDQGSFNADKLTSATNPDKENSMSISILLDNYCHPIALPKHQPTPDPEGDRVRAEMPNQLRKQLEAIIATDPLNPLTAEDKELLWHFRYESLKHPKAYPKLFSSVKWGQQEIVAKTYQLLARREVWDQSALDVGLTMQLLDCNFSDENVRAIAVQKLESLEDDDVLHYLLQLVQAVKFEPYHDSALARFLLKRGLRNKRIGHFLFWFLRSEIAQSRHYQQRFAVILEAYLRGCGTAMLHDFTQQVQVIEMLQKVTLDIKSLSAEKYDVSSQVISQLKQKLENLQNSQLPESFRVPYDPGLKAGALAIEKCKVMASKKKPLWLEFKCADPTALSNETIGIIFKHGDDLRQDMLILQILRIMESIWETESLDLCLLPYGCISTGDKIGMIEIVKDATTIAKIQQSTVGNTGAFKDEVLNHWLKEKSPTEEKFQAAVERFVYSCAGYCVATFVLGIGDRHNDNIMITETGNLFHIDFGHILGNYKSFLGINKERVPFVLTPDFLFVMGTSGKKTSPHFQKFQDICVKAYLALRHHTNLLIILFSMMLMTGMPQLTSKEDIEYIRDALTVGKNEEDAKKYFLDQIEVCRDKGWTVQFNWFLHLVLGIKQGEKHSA
endpoint-name: pIC50
Quick note: pIC50 values are minus log10 of concentrations in mol/L.

Query (compound): Cc1nc(NC(=O)NCCc2cn(C(C)C)cn2)sc1-c1ccc(S(C)(=O)=O)c(F)c1 ; field requested: pIC50
7.36

Quick one: pIC50 of Cc1nc(NC(=O)NCCC(=O)OC(C)(C)C)sc1-c1ccc(S(C)(=O)=O)c(C(F)(F)F)c1 ?
6.67

Fill blank: measured pIC50 of the compound CCn1cnc(CCNC(=O)Nc2nc(C)c(-c3ccc(S(C)(=O)=O)c(F)c3)s2)c1 is ____.
7.42

What value of pIC50 has been reported for the following compound? Cc1nc(NC(=O)NCCS(C)(=O)=O)sc1-c1ccc(F)c(S(C)(=O)=O)c1
6.75

What value of pIC50 has been reported for the following compound? CCc1cnc(CCNC(=O)Nc2nc(C)c(-c3ccc(S(C)(=O)=O)c(-n4ccnc4)c3)s2)o1
7.49

* * *

Listed here: compounds with reported IC50 for PIK3CA (human) (UniProt P42336).
Numbers only; they are read as nM.

Need IC50 of CCc1nnc(CCNC(=O)Nc2nc(C)c(-c3ccc(S(C)(=O)=O)c(F)c3)s2)o1 , thanks.
839

What value of IC50 has been recorded for this entry: Cc1nc(NC(=O)NCCO)sc1-c1ccc(S(C)(=O)=O)c(C(F)(F)F)c1
35

Report IC50 for Cc1nc(NC(=O)NCCC(=O)OC(C)(C)C)sc1-c1ccc(S(C)(=O)=O)c(F)c1 please.
3020

# IC50 lookup, item CCc1cnc(CCNC(=O)Nc2nc(C)c(-c3ccc(S(C)(=O)=O)c(-n4ccnc4)c3)s2)o1
156

* * *

endpoint-name: pIC50
Please report pIC50 as the negative decimal logarithm of the molar concentration, giving only the number.

What measured pIC50 is associated with CCc1cnc(CCNC(=O)Nc2nc(C)c(-c3ccc(S(C)(=O)=O)c(-n4ccnc4)c3)s2)o1 on PIK3CD (Human) (UniProt O00329)?
6.77

So what pIC50 did Cc1nc(NC(=O)NCCC(=O)OC(C)(C)C)sc1-c1ccc(S(C)(=O)=O)c(F)c1 get with PIK3CD (Human) (UniProt O00329)?
6.20

Please state recorded pIC50 (tested on PIK3CD (Human) (UniProt O00329)) of Cc1nc(NC(=O)NCCC(=O)OC(C)(C)C)sc1-c1ccc(S(C)(=O)=O)c(C(F)(F)F)c1
Sequence (O00329 whole entry, looked up): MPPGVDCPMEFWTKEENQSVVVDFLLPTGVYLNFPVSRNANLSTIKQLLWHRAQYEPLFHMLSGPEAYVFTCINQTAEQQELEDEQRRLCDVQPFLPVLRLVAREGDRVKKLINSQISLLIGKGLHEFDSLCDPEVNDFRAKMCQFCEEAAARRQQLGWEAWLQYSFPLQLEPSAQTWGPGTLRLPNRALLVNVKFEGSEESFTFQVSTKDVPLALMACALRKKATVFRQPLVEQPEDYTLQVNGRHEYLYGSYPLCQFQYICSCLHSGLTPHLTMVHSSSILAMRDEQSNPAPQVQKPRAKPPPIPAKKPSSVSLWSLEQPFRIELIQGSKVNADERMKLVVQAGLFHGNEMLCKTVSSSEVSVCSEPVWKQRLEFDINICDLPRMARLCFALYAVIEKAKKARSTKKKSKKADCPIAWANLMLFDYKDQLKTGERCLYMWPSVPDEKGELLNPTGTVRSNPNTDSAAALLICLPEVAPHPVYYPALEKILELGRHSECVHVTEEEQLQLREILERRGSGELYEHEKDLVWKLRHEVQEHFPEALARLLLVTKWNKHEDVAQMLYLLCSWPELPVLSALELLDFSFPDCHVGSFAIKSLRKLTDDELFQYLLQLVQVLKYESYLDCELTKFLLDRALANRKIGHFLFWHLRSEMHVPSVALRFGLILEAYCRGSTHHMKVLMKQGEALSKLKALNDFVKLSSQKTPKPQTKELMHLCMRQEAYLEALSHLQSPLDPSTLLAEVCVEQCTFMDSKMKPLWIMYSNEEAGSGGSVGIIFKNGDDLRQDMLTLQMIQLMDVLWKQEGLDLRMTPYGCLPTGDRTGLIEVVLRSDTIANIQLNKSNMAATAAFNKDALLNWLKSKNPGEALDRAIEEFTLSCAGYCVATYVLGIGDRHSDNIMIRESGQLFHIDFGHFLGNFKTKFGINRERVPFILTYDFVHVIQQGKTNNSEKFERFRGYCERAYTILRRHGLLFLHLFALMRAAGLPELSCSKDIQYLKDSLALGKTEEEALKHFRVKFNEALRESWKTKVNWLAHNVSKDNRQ
5.58
